- testSummary: Example 7: serum testosterone lowering in healthy men
- Assay type: in vivo
- recordedConditions: male, human, plasma, oral, maintenance doses of 80 mg or greater
measuredMetric: concentration at 28 days

Task item: Using known records, supply concentration at 28 days for `CONC(=O)Nc1ccc(-c2sc3c(c2CN(C)C)c(=O)n(-c2ccc(OC)nn2)c(=O)n3Cc2c(F)cccc2F)cc1`
Reply: > 4 ng/mL

* * *

- testSummary: Example 7: single and multiple dose pharmacokinetics and food effect in healthy men
- Assay type: in vivo, human
- recordedConditions: male, human, plasma, oral; 180 mg single dose, high fat breakfast; read-out: median Tmax, fed conditions
measuredMetric: Tmax
Answer with the value and then the unit.

Task item: Let me know recorded Tmax for `CONC(=O)Nc1ccc(-c2sc3c(c2CN(C)C)c(=O)n(-c2ccc(OC)nn2)c(=O)n3Cc2c(F)cccc2F)cc1` , thanks.
Reply: 5 h
